Values compiled from PubChem BioAssay (NCI).

system: SN12C renal; assay: NCI tumour cell line growth inhibition, 48 h
So I've got a bunch of molecules here, and I need their TGI values.

The measured TGI associated with CC1OC(O[C@H]2/C=C/C=C/C=C/C=C/C=C/C=C/C=C/[C@H](C)[C@@H](O)[C@@H](C)[C@H](C)OC(=O)C[C@H](O)C[C@H](O)CC[C@@H](O)[C@H](O)C[C@H](O)C[C@]3(O)C[C@H](O)[C@@H](C(=O)O)[C@H](C2)O3)C(O)C(N)C1O (some centres undefined) reads 9.15 µM

The measured TGI associated with "CN(C)CCCn1c(-c2cc(C(C)(C)C)c(O)c(C(C)(C)C)c2)csc1=Nc1ccccc1" reads 6.15 µM

The measured TGI associated with O=C(OCC1CCCN2CCCCC12)c1ccncc1 (centres undefined) reads > 100 µM

The measured TGI associated with NC(Cc1c[nH]c2ccccc12)C(=O)O (centres undefined) reads > 13.9 µM

The measured TGI associated with "C/C(=N\NS(=O)(=O)c1ccc(C)cc1)c1c(O)cc(C)oc1=O" reads > 100 µM

The measured TGI associated with "COc1cc(/C=C/C(=O)N[C@@H]2C(=O)N3[C@@H]2SC(C)(C)[C@@H]3C(=O)O)cc(OC)c1OC" reads > 100 µM

The measured TGI associated with "Cc1ccc(/C=N/NC2=NCCN2)s1" reads > 100 µM

The measured TGI associated with COc1ccc(C(=O)C(Br)C(Br)C(=O)O)cc1 (centres undefined) reads > 100 µM

The measured TGI associated with "Nc1nc(N)c2nnn(C[C@H]3CC[C@@H](CO)C3)c2n1" reads 93.3 µM
